- test.system: T1, human CD8αα homodimer, recombinant protein (Acro Biosystems) (human, UniProt P01732 22-182)
- T1 construct: also called CD8αα antigen; biotinylated CD8α recombinant protein (CDA-H82E3)
- T1 sequence (P01732 22-182 limits assumed): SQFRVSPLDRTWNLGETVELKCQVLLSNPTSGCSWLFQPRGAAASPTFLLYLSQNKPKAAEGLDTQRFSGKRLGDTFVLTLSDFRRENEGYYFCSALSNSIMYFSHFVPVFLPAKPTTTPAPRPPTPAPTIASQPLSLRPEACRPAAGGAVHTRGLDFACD
- assay.info: BLI, whole antibody
recorded.endpoint: koff (s⁻¹)
State the answer as a number, implicitly in s⁻¹.

Request: Requested read-out: koff. Entry: CBD1380 whole antibody (VH N55S of CBD1033), Fc-silenced human IgG1 (antibody, V domains shown) VH: QVQLVQSGAEVKKPGASVKVSCKASRYTFTDYNLHWVRQAPGQGLEWMGFIYPYSGGTGYAQKFQGRVTMTVDTSTSTAYMELSSLRSEDTAVYYCARDHRYNEGVSFDYWGQGTTVTVSS VL: DIQLTQSPSSLSASVGDRATITCRASESVDGFGNSFMNWYQQKPGKAPKLLIYLASNLESGVPSRFSGSGSGTDFTLTISSVQPEDFATYYCQQNNEDPYTFGQGTKLEIKR
Result: 0.00192

Request: Proceed to CBD1381 whole antibody (VH N55Q of CBD1033), Fc-silenced human IgG1 (antibody, V domains shown) VH: QVQLVQSGAEVKKPGASVKVSCKASRYTFTDYNLHWVRQAPGQGLEWMGFIYPYQGGTGYAQKFQGRVTMTVDTSTSTAYMELSSLRSEDTAVYYCARDHRYNEGVSFDYWGQGTTVTVSS VL: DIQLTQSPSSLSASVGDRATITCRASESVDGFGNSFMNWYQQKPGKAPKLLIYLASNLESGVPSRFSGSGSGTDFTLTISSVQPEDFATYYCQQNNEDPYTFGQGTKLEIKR
Result: 0.000795

Request: Proceed to CBD1382 whole antibody (VH N55A of CBD1033), Fc-silenced human IgG1 (antibody, V domains shown) VH: QVQLVQSGAEVKKPGASVKVSCKASRYTFTDYNLHWVRQAPGQGLEWMGFIYPYAGGTGYAQKFQGRVTMTVDTSTSTAYMELSSLRSEDTAVYYCARDHRYNEGVSFDYWGQGTTVTVSS VL: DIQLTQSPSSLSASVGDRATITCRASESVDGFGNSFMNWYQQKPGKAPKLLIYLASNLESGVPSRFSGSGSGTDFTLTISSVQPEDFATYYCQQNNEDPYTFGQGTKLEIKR
Result: 0.00195

Request: Proceed to CBD1033 whole antibody, human IgG1 with Fc-silencing mutations L234A, L235A and P329A (CBD1033-hIgG1-LALAPA) (antibody, V domains shown, On tLNPs the antibody was SATA-modified or AJICAP-thiolated (CBD1033.29) and conjugated to the LNP; also called CBD1033.3; CBD1033 IgG1) VH: QVQLVQSGAEVKKPGASVKVSCKASRYTFTDYNLHWVRQAPGQGLEWMGFIYPYNGGTGYAQKFQGRVTMTVDTSTSTAYMELSSLRSEDTAVYYCARDHRYNEGVSFDYWGQGTTVTVSS VL: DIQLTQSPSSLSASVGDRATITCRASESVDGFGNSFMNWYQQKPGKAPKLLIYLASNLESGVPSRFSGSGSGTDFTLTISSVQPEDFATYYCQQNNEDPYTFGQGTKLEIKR
Result: 0.00307

Request: Proceed to CBD1383 whole antibody (VH N55D of CBD1033, deamidation mimic), Fc-silenced human IgG1 (antibody, V domains shown, also called 100% deamidation mimic) VH: QVQLVQSGAEVKKPGASVKVSCKASRYTFTDYNLHWVRQAPGQGLEWMGFIYPYDGGTGYAQKFQGRVTMTVDTSTSTAYMELSSLRSEDTAVYYCARDHRYNEGVSFDYWGQGTTVTVSS VL: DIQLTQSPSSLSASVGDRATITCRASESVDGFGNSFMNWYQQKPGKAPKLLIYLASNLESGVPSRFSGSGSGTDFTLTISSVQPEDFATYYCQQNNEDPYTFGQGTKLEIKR
Result: 0.00303
